- study target: CDK2/Cyclin E complex (UniProt P24941 1-298; P24864 1-410)
- test summary: cell-based or functional assay
Ends that are not written are not given here.
IC50, cyclin E/CDK2 kinase, GST-pRb reference
Give the quantity in µM, number only.

Worked set:
Challenge: Determine its reported IC50, cyclin E/CDK2 kinase, GST-pRb: SKRRLIFSKRKP-NH2 [SKRRLIFSKRKP-NH2]
Response given: 46

Challenge: Determine its reported IC50, cyclin E/CDK2 kinase, GST-pRb: TDFYHSKRRLIF-NH2 [p21 (148-159) TDFYHSKRRLIF-NH2]
Response given: 2.2

***
Challenge: Determine its reported IC50, cyclin E/CDK2 kinase, GST-pRb: DFYHSKRRLIFS-NH2 [p21 (149-160) DFYHSKRRLIFS-NH2]
Response given: 4.5

Challenge: Determine its reported IC50, cyclin E/CDK2 kinase, GST-pRb: DFYHSK-NH2 [DFYHSK-NH2]
Response given: 200
